The reported measurements were obtained from paper PMC5290327.

Experiment: PK study
Type: in vivo, rat
Settings: rat, plasma, iv, 2 mg/kg, rat i.v. 2 mg kg^−1; read-out: t1/2 effective
Method: On the treatment day, all animals were weighed and the dosing volume was calculated for each individual animal according to its actual body weight. All animal were dosed once. Blood samples were taken at different time points and plasma was collected after centrifugation (10,000g, 10 min, 4 °C). Plasma samples were analysed by LC–MS/MS. […] All relevant observations were recorded. […]
reported-property: half-life (min)
Quick reminder: number only, in min, skip the unit.

Sample COC(=O)N1CCN(C(=N)c2cccc(NC(=O)Nc3ccc(S(=O)(=O)NCc4ccc(S(N)(=O)=O)cc4)cc3)c2)CC1 ; half-life observed: 52
